- measured_on: Dual specificity tyrosine-phosphorylation-regulated kinase 4 (Homo sapiens)
- method_description: inhibition of human DYRK4 phosphotransferase activity – biochemical, Z'-LYTE, FRET, protease-coupled, direct format, dose response (AID 1671209)
- recorded_conditions: recombinant DYRK4
quantity_kind: IC50

Request: Quick one: IC50 for Brc1c(Br)c(Br)c2n[nH]nc2c1Br ?
Result: 12.9 µM
